All figures here come from ChEMBL document CHEMBL1764999.

Examples of molecules with documented Papp follow.
Assay: Apparent permeability of the compound by PAMPA
Format: ADME
Details: read-out: Papp
Square brackets hold non-standard residues; d marks the D form. Peptide text beside a SMILES is read from it. * marks the point of attachment. Bip = N[C@@H](Cc1ccc(-c2ccccc2)cc1)C(=O)O; Dip = N[C@H](C(=O)O)C(c1ccccc1)c1ccccc1; NHBn = c1ccc(CN*)cc1
Assay Endpoint: Papp (×10⁻⁶ cm/s)

> print(dat)
                                   molecule  meas.value
1  N=C(N)NCCC[C@H](NC(=O)[C@@H](NC(=O)[C@@H](N)CCCNC(=N)N)C(c1ccccc1)c1ccccc1)C(=O)NCc1ccccc1 (H-Arg-[Dip]-Arg-NHBn)        0.42
2  N=C(N)NCCC[C@H](NC(=O)[C@H](Cc1c[nH]c2ccccc12)NC(=O)[C@@H](N)CCCNC(=N)N)C(=O)NCc1ccccc1 (H-Arg-Trp-Arg-NHBn)        0.77
3  N=C(N)NCCC[C@H](NC(=O)[C@@H](NC(=O)[C@@H](N)CCCNC(=N)N)C(c1ccccc1)c1ccccc1)C(N)=O (H-Arg-[Dip]-Arg-NH2)        0.83
4  CC(C)(C)c1cc(C(C)(C)C)c2[nH]c(C(C)(C)C)c(C[C@H](N)C(=O)N[C@@H](CCCNC(=N)N)C(N)=O)c2c1        0.43
5  NCCCC[C@H](NC(=O)[C@H](Cc1ccc(-c2ccccc2)cc1)NC(=O)[C@@H](N)CCCCN)C(N)=O (H-Lys-[Bip]-Lys-NH2)        0.06
6  N=C(N)NCCC[C@H](NC(=O)[C@@H](N)CCCNC(=N)N)C(=O)N[C@@H](Cc1c[nH]c2ccccc12)C(=O)NCc1ccccc1 (H-Arg-Arg-Trp-NHBn)        0.96
